Data origin: patent US20240279318A1

Kd reference
target: T1, AFP158/HLA-A*02:01 complex (human); test: SPR, scFv captured, pMHC in flow;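 further: complex injected at several concentrations over crude scFv, association then running-buffer dissociation, KD estimated from kinetic on- and off-rate constants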
T1 construct: flowed over the chip in SPR; also called AFP158 pro
measuredParameter: Kd (µM)

INSERT INTO results (binder, measuredparameter, resultvalue) VALUES
  ('LH98R (scFv, AS170036 VL1VH1 scFv mutein) scFv: QSALTQPRSVSGSPGQSVTISCAGTSSDVGSENYVSWYQQHPGKAPKLMIYQVNKRASGVPDRFSGSKSGNTASLTISGLQAEDEADYYCASYRSSDRNIVFGGGTKLTVLGGGGSGGGGSGGGGSEVQLVESGGGLVQPGGSLRLSCAASGFTFSSYAMSWVRQAPGKGLEWVSTINSGTGSPYYADSVKGRFTISRDNSKNTLYLQMNSLRAEDTAVYYCAKNFFDGSWFLGPPAMDYWGQGTLVTVSSHHHHHH', 'Kd', 0.22),
  ('LH98F (scFv, AS170036 VL1VH1 scFv mutein; also called AS170036 VL1VH1-VLH98F) scFv: QSALTQPRSVSGSPGQSVTISCAGTSSDVGSENYVSWYQQHPGKAPKLMIYQVNKRASGVPDRFSGSKSGNTASLTISGLQAEDEADYYCASYRSSDFNIVFGGGTKLTVLGGGGSGGGGSGGGGSEVQLVESGGGLVQPGGSLRLSCAASGFTFSSYAMSWVRQAPGKGLEWVSTINSGTGSPYYADSVKGRFTISRDNSKNTLYLQMNSLRAEDTAVYYCAKNFFDGSWFLGPPAMDYWGQGTLVTVSSHHHHHH', 'Kd', 0.074),
  ('LE32L (scFv, AS170036 VL1VH1 scFv mutein) scFv: QSALTQPRSVSGSPGQSVTISCAGTSSDVGSLNYVSWYQQHPGKAPKLMIYQVNKRASGVPDRFSGSKSGNTASLTISGLQAEDEADYYCASYRSSDHNIVFGGGTKLTVLGGGGSGGGGSGGGGSEVQLVESGGGLVQPGGSLRLSCAASGFTFSSYAMSWVRQAPGKGLEWVSTINSGTGSPYYADSVKGRFTISRDNSKNTLYLQMNSLRAEDTAVYYCAKNFFDGSWFLGPPAMDYWGQGTLVTVSSHHHHHH', 'Kd', 0.98);
